Biological target: UniProt:P31749
Assay: Live cell target engagement by NanoBRET competitive probe displacement, AKT1 WT
Conditions: transfected HEK293 cells, 2 h at 37° C., read-out: AKT1 WT IC50: GeoMean IC50
pIC50: −log10 of the molar value.
Listed below: pIC50 values for each entry.
measure: pIC50

>>> measured_result("CSc1ccn(-c2ccc3nc(-c4cccnc4N)n(-c4ccc5c(c4)CC[C@@H]5NC(=O)c4ccc(O)c(C=O)c4)c3n2)n1")
"7.00 to 8.00"
>>> measured_result("Nc1ncccc1-c1nc2ccc(-n3cc(Cl)cn3)nc2n1-c1ccc2c(c1)CC[C@@H]2NC(=O)c1ccc(O)c(C=O)c1")
"5.70 to 7.00"
>>> measured_result("CCc1cc(-n2cccn2)nc2c1nc(-c1cccnc1N)n2-c1ccc2c(c1)CC[C@@H]2NC(=O)c1ccc(O)c(C=O)c1")
"7.00 to 8.00"

====

Target: AKT1 WT (Homo sapiens, UniProt P31749)
Sequence (P31749 whole entry): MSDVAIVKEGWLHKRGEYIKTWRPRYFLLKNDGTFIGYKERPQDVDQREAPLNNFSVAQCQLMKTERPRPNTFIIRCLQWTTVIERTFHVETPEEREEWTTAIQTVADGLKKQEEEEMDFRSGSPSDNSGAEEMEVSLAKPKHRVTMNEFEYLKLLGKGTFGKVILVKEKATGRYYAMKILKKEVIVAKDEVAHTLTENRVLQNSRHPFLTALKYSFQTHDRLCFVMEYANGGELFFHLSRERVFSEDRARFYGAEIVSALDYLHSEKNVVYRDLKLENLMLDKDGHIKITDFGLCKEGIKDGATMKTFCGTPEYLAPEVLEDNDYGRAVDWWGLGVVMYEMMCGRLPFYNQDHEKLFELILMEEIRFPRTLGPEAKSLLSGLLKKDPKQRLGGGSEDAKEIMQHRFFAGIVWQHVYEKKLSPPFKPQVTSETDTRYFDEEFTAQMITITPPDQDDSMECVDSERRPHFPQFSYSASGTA
Assay: Live cell target engagement by NanoBRET competitive probe displacement, AKT1 WT
Conditions: transfected HEK293 cells, 2 h at 37° C., read-out: AKT1 WT IC50: GeoMean IC50
Measured IC50 by item
measure: IC50

>>> measured_result("Nc1ncccc1-c1nc2ccc(-n3ccc(N4CCC4)n3)nc2n1-c1ccc2c(c1)CC[C@@H]2NC(=O)c1ccc(O)c(C=O)c1")
"10 to 100 nM"
>>> measured_result("Cc1nc(-c2ccc3nc(-c4cccnc4N)n(-c4ccc5c(c4)CC[C@@H]5NC(=O)c4ccc(O)c(C=O)c4)c3n2)no1")
"10 to 100 nM"
>>> measured_result("Cc1cc(-n2nccn2)nc2c1nc(-c1cccnc1N)n2-c1ccc2c(c1)CC[C@@H]2NC(=O)c1cc(C=O)c(O)c(F)c1F")
"10 to 100 nM"
>>> measured_result("Nc1ncccc1-c1nc2ccc(-n3ccc(C(F)F)n3)nc2n1-c1ccc2c(c1)CC[C@@H]2NC(=O)c1ccc(O)c(C=O)c1")
"10 to 100 nM"
>>> measured_result("Nc1ncccc1-c1nc2ccc(-c3ncco3)nc2n1-c1ccc2c(c1)CC[C@@H]2NC(=O)c1ccc(O)c(C=O)c1")
"10 to 100 nM"
>>> measured_result("CN1CCN(c2cc(-n3cccn3)nc3c2nc(-c2cccnc2N)n3-c2ccc3c(c2)CC[C@@H]3NC(=O)c2ccc(O)c(C=O)c2)CC1")
"100 to 2000 nM"
>>> measured_result("Nc1ncccc1-c1nc2ccc(-n3cccn3)nc2n1-c1ccc2c(c1)[C@@H](O)C[C@@H]2NC(=O)c1ccc(O)c(C=O)c1 (single isomer, unassigned)")
"100 to 2000 nM"
>>> measured_result("CC(=O)Nc1ccc(C(=O)N[C@H]2CCc3cc(-n4c(-c5cccnc5N)nc5ccc(-c6ccccc6)nc54)ccc32)cc1C=O")
"< 10 nM"
>>> measured_result("Cc1cc2nc(-c3cccnc3N)n(-c3ccc4c(c3)CC[C@@H]4NC(=O)c3ccc(O)c(C=O)c3)c2nc1-n1cccn1")
"100 to 2000 nM"
>>> measured_result("Nc1ncccc1-c1nc2ccc(-n3cc(C(F)F)cn3)nc2n1-c1ccc2c(c1)CC[C@@H]2NC(=O)c1ccc(O)c(C=O)c1")
"100 to 2000 nM"
>>> measured_result("CN(C)C(=O)Nc1ccc(C(=O)N[C@H]2CCc3cc(-n4c(-c5cccnc5N)nc5ccc(-c6ccccc6)nc54)ccc32)cc1C=O")
"< 10 nM"
>>> measured_result("COc1cnn(-c2ccc3nc(-c4cccnc4N)n(-c4ccc5c(c4)CC[C@@H]5NC(=O)c4ccc(O)c(C=O)c4)c3n2)c1")
"10 to 100 nM"
>>> measured_result("[2H]C(=O)c1cc(C(=O)N[C@H]2CCc3cc(-n4c(-c5cccnc5N)nc5ccc(-n6cccn6)nc54)ccc32)c(F)c(F)c1O")
"< 10 nM"
>>> measured_result("Nc1ncccc1-c1nc2ccc(-n3ccc(F)n3)nc2n1-c1ccc2c(c1)CC[C@@H]2NC(=O)c1ccc(O)c(C=O)c1")
"10 to 100 nM"
>>> measured_result("Nc1ncccc1-c1nc2ccc(-c3ccccc3)nc2n1-c1ccc2c(c1)CC[C@@H]2NC(=O)c1cc(C=O)c(O)c(Cl)n1")
"100 to 2000 nM"
>>> measured_result("Cc1csc(-c2ccc3nc(-c4cccnc4N)n(-c4ccc5c(c4)CC[C@@H]5NC(=O)c4ccc(O)c(C=O)c4)c3n2)n1")
"< 10 nM"
>>> measured_result("Nc1ncccc1-c1nc2ccc(-n3ccc(F)n3)nc2n1-c1ccc2c(c1)CC[C@@H]2NC(=O)c1cc(C=O)c(O)cc1F")
"10 to 100 nM"
>>> measured_result("Nc1ncccc1-c1nc2ccc(-c3ncco3)nc2n1-c1ccc2c(c1)CC[C@@H]2NC(=O)c1cc(C=O)c(O)c(F)c1F")
"10 to 100 nM"
>>> measured_result("[N-]=[N+]=Nc1cc(O)c(C=O)cc1C(=O)N[C@H]1CCc2cc(-n3c(-c4cccnc4N)nc4ccc(-n5cccn5)nc43)ccc21")
"100 to 2000 nM"
>>> measured_result("Nc1ncccc1-c1nc2ccc(-c3cccnc3)nc2n1-c1ccc2c(c1)CC[C@@H]2NC(=O)c1ccc(O)c(C=O)c1")
"10 to 100 nM"
>>> measured_result("Nc1ncccc1-c1nc2ccc(-n3cccn3)nc2n1-c1ccc2c(c1)CC(F)[C@@H]2NC(=O)c1ccc(O)c(C=O)c1 (single isomer, unassigned) [Example 256]")
"10 to 100 nM"
>>> measured_result("CC(=O)c1cc(C(=O)N[C@H]2CCc3cc(-n4c(-c5cccnc5N)nc5ccc(-n6cccn6)nc54)ccc32)cc(C=O)c1O")
"10 to 100 nM"
>>> measured_result("Cc1cc(-c2nccs2)nc2c1nc(-c1cccnc1N)n2-c1ccc2c(c1)CC[C@@H]2NC(=O)c1ccc(O)c(C=O)c1")
"10 to 100 nM"
>>> measured_result("Nc1ncccc1-c1nc2ccc(-n3cccn3)nc2n1-c1ccc2c(c1)CC[C@@H]2NC(=O)c1cc(C=O)c(O)cc1O")
"10 to 100 nM"
>>> measured_result("Nc1ncccc1-c1nc2ccc(-n3cccn3)nc2n1-c1ccc2c(c1)CC[C@@H]2NC(=O)c1cc(C=O)c(F)cc1F")
"10 to 100 nM"
